# assay_target: T1, hAMY3R (human, UniProt P30988)
# T1 sequence 1: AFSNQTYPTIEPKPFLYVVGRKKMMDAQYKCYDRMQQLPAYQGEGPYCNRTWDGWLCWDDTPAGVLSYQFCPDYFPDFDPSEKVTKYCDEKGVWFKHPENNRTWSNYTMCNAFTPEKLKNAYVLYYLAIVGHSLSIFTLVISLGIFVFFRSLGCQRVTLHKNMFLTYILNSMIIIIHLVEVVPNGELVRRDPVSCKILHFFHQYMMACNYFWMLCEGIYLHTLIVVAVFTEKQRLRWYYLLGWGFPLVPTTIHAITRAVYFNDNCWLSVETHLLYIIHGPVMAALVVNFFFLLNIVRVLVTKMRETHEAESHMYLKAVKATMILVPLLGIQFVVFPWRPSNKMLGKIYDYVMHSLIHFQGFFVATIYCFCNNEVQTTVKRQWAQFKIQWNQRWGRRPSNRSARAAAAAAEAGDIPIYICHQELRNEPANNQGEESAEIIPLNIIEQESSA
# T1 sequence 2: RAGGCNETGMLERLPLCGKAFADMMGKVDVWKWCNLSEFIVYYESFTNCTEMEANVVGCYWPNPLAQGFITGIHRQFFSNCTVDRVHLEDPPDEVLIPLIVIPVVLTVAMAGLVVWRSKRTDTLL
# procedure_summary: cell-based or functional assay
Numbered stars: 1 amine (or outer) side, 2 acyl side, 3 side chain; on linkers, the order of the positions; unused ones are H or OH. Bridge positions count the residues as written; N and C are the ends. Square brackets hold non-standard residues; d marks the D form. Ends that are not written are not given here. * marks the point of attachment. C20 diacid = O=C(O)CCCCCCCCCCCCCCCCCCC(=O)*; γGlu = O=C(O)[C@H](CCC(=O)[*:2])N[*:1]; Hyp = O=C(O)[C@@H]1C[C@@H](O)CN1; Cit = NC(=O)NCCC[C@H](N)C(=O)O
Hi all, reminder that labels come from hAMY3R EC50 (cAMP), split as low bin = under 0.02 nM, mid bin = from 0.02 nM up to 0.05 nM, high bin = 0.05 nM and over

1. {C20 diacid-γGlu}-KCNTATCTVQRLAHQIYQYTDKDKDNVAPPTNVGSNG[Hyp]-NH2 (disulfide 2-7 (inferred); ends not checked) [SEQ ID NO: 48] :: low bin
2. GCRTGTCTVQRLAHQIYQFTDKDKDNVAPRSKVGPQG[Hyp]-NH2 (disulfide 2-7 (inferred); ends not checked) [SEQ ID NO: 187] :: high bin
3. GCRTGTCTVQRLAHQIYQFTDKDKDNVAPRTNIGPQG[Hyp]-NH2 (disulfide 2-7 (inferred); ends not checked) [SEQ ID NO: 118] :: mid bin
4. GCRFGTCTVQWLAHQIYQFTDKDKDNVAPRTNVSPQGY [SEQ ID NO: 340] :: mid bin
5. {C20 diacid-γGlu}-GCRFGTCTVQRLAHFLYQFTDKDKDNVAPRTNVGPQGY-NH2 (disulfide 2-7 (inferred); ends not checked) [SEQ ID NO: 200] :: high bin
6. GCRTGTCTVQWLAHQIYQFTDKDKDNVAPRSNIGPQG[Hyp]-NH2 (disulfide 2-7 (inferred); ends not checked) [SEQ ID NO: 359] :: high bin
7. {C20 diacid-γGlu}-KCNTATCTVQRLAEQIYQFTDKDKDQVAPPTNVGSNG[Hyp]-NH2 (disulfide 2-7 (inferred); ends not checked) [SEQ ID NO: 100] :: low bin
8. GCRFGTCTVQWLAHQIYQFTDKDKDNVAPRTKIGPNG[Hyp]-NH2 (disulfide 2-7 (inferred); ends not checked) [SEQ ID NO: 343] :: low bin
9. {C20 diacid-γGlu}-KCNTATCTVIRLAHQIYQFTDKDKDNVAPPTNVGSNG[Hyp]-NH2 (disulfide 2-7 (inferred); ends not checked) [SEQ ID NO: 159] :: mid bin
10. GCRTGTCTVQWLAHQIYQFTDKDKDNVAPRSKVGPNG[Hyp]-NH2 (disulfide 2-7 (inferred); ends not checked) [SEQ ID NO: 347] :: high bin
11. GCRFGTCTVQRLAHFLYQFTDKDKDNVAPRTKIGPQGY [SEQ ID NO: 365] :: low bin
12. RCQTSTCTVARLAEQIAQYTDKDKDQVAPPTNVGSNS[Hyp]-NH2 (disulfide 2-7 (inferred); ends not checked) [SEQ ID NO: 32] :: low bin
13. KCNTATCTVQRLAHQIYQFTDKDKDNVAAPTNVGSNG[Hyp]-NH2 (disulfide 2-7 (inferred); ends not checked) [SEQ ID NO: 53] :: low bin
14. GCRFGTCTVQRLAHQIYQFTDKDKDNVAPRTKVSPNGY [SEQ ID NO: 385] :: mid bin
15. GCRFGTCTVQ[Cit]LAHQIYQFTDKDKDNVAPRTKISPQG[Hyp]-NH2 (disulfide 2-7 (inferred); ends not checked) [SEQ ID NO: 294] :: mid bin
16. KCRFGTCTVQRLAHQIYQFTDKDKDNVAPRSKISPQT[Hyp]-NH2 (disulfide 2-7 (inferred); ends not checked) [SEQ ID NO: 205] :: high bin
17. {C20 diacid-γGlu}-KCNTATCTVDRLAHQIAQFTDKDKDPVAPPTNVGSNG[Hyp]-NH2 (disulfide 2-7 (inferred); ends not checked) [SEQ ID NO: 130] :: mid bin
18. GCRTGTCTVQ[Cit]LAHQIYQFTDKDKDNVAPRSKVGPNG[Hyp]-NH2 (disulfide 2-7 (inferred); ends not checked) [SEQ ID NO: 290] :: mid bin
